tested on: UniProt:P21917
Sequence (P21917 whole entry): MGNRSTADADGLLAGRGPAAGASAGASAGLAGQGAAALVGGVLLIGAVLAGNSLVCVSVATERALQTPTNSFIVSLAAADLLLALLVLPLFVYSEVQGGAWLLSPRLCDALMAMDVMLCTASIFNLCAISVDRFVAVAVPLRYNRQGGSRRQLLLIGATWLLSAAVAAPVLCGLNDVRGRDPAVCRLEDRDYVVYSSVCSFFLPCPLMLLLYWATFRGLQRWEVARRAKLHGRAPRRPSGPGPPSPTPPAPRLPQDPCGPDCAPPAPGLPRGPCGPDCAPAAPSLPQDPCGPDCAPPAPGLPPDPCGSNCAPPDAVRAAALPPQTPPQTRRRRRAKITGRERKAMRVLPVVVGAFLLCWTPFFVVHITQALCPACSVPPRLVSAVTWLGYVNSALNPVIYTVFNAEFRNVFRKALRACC
method summary: Test 1: agonistic activity for human D4 receptor (aequorin luminescence, CHO-K1)
Assay type: cell-based
condition label: CHO-K1 cell transiently expressing aequorin, Ga16 and receptor
measure: EC50 (nM)
Please respond with the number in nM and leave the unit unwritten.

> print(dat)
                                   compound       tested.on  reported.value
1  Cc1cccc(C2CCN(CCNC(=O)C3CCCCO3)CC2)n1 (centres unmarked)  UniProt:P21917              15

Here is another compound to look at.
*Q* Which EC50 is reported for this compound? O=C(NCCN1CCC(c2cccc(C(F)(F)F)n2)CC1)C1CCOC1 (centres unmarked)
*A* 30
